experimentalTarget: UniProt P04585
Could you please mark 1 for values of Ki below 2 nM and 0 for values at or above it?

>  <compound>
CC(C)CN(C[C@@H](O)[C@H](Cc1ccccc1)NC(=O)O[C@H]1CO[C@H]2OCC[C@H]21)[C@H]1CCNC1=O

>  <experimentalTarget>
UniProt P04585

>  <assignedCategory>
0

$$$$
>  <compound>
O=C(N[C@@H](Cc1ccccc1)[C@H](O)CN1CCCC/C=C\CCCCOc2cccc(c2)S1(=O)=O)O[C@@H]1CC2CCO[C@@H]2C1 (stereo partly drawn)

>  <experimentalTarget>
UniProt P04585

>  <assignedCategory>
0

$$$$
>  <compound>
C=CCCCCN(C[C@@H](O)[C@H](Cc1ccccc1)NC(=O)O[C@H]1CO[C@H]2OCCC21)S(=O)(=O)c1cccc(OCC=C)c1 (stereo partly drawn)

>  <experimentalTarget>
UniProt P04585

>  <assignedCategory>
0

$$$$
>  <compound>
C=CCCCCOc1cccc(S(=O)(=O)N(CCCCC=C)C[C@@H](O)[C@H](Cc2ccccc2)NC(=O)O[C@H]2CO[C@H]3OCCC32)c1 (stereo partly drawn) [Compound 225c]

>  <experimentalTarget>
UniProt P04585

>  <assignedCategory>
0

$$$$
>  <compound>
CC(C)CN(C[C@@H](O)[C@H](Cc1ccccc1)NC(=O)OC1CO[C@H]2OCCC12)S(=O)(=O)c1ccc(Cl)c(O)c1 (stereo partly drawn)

>  <experimentalTarget>
UniProt P04585

>  <assignedCategory>
1

$$$$
>  <compound>
CC(C)CN(C[C@@H](O)[C@H](Cc1ccccc1)NC(=O)OC1CCCC12CCCO2)S(=O)(=O)c1cccc(O)c1 (stereo partly drawn)

>  <experimentalTarget>
UniProt P04585

>  <assignedCategory>
0

$$$$

---

In what follows, each item is paired with its Ki for UniProtKB P04585.

>  <compound>
CC(C)CN(C[C@@H](O)[C@H](Cc1ccccc1)NC(=O)O[C@@H]1CC2CCO[C@@H]2C1)NS(=O)(=O)c1ccc(F)c([N+](=O)[O-])c1 (stereo partly drawn)

>  <Ki, nM>
351

$$$$
>  <compound>
CC(C)CN(C[C@@H](O)[C@H](Cc1ccccc1)NC(=O)OC1CC2CCO[C@@H]2C1)S(=O)(=O)c1cc(O)cc(O)c1 (stereo partly drawn)

>  <Ki, nM>
77

$$$$
>  <compound>
COc1ccc(S(=O)(=O)NN(CC(C)C)C[C@@H](O)[C@H](Cc2ccccc2)NC(=O)O[C@@H]2CC3CCO[C@@H]3C2)cc1 (stereo partly drawn)

>  <Ki, nM>
3.2

$$$$
>  <compound>
Cc1ccc(S(=O)(=O)N(C[C@@H](O)[C@H](Cc2ccccc2)NC(=O)OC2CC3CCO[C@@H]3C2)C2CCOC2)cc1CO (stereo partly drawn)

>  <Ki, nM>
1.3

$$$$
>  <compound>
CC(C)CN(C[C@@H](O)[C@H](Cc1ccccc1)NC(=O)OC1CC2CCO[C@@H]2C1)S(=O)(=O)c1cncc([N+](=O)[O-])c1 (stereo partly drawn)

>  <Ki, nM>
1.4

$$$$
>  <compound>
CC(C)CN(C[C@@H](O)[C@H](Cc1ccccc1)NC(=O)OC1CC2CCO[C@@H]2C1)S(=O)(=O)c1ccc(F)c(N)c1 (stereo partly drawn)

>  <Ki, nM>
2

$$$$

---

experimentalTarget: HIV-1 protease (Human immunodeficiency virus type 1 group M subtype B, UniProt P04585)
Construct: made in house; host or cells: E. coli BL21 (dE3)pLysS, pET30a vector
assayRemarks: HIV-1 Protease Inhibition Assay
Format: biochemical
conditionNotes: fluorogenic substrate assay

>  <compound>
COc1ccc(S(=O)(=O)N(C[C@@H](O)[C@H](Cc2ccccc2)NC(=O)OC(C)(C)C)NC(=O)OC(C)(C)C)cc1 [Compound 187]

>  <IC50 / nM>
534

$$$$
>  <compound>
C=CCCCCOc1cccc(S(=O)(=O)N(CCCCC=C)C[C@@H](O)[C@H](Cc2ccccc2)NC(=O)O[C@H]2CO[C@H]3OCCC32)c1 (stereo partly drawn) [Compound 225c]

>  <IC50 / nM>
8.5

$$$$
>  <compound>
CC(C)CN(C[C@@H](O)[C@H](Cc1ccccc1)NC(=O)O[C@@H]1CC2CCO[C@@H]2C1)NS(=O)(=O)c1ccc(F)c([N+](=O)[O-])c1 (stereo partly drawn) [Compound 184]

>  <IC50 / nM>
1200

$$$$

---

In what follows, each item is paired with its log10 Ki for HIV-1 protease (Human immunodeficiency virus type 1 group M subtype B).
property: log10 Ki (log10 of the value in nM)

>  <compound>
O=C(N[C@@H](Cc1ccccc1)[C@H](O)CN(CCN1CCOCC1)S(=O)(=O)c1ccc(Cl)c(O)c1)OC1CC2CCO[C@@H]2C1 (stereo partly drawn)

>  <log10 Ki>
0.69

$$$$
>  <compound>
CN(C)CCN(C[C@@H](O)[C@H](Cc1ccccc1)NC(=O)OC1CC2CCO[C@@H]2C1)S(=O)(=O)c1ccc(F)c(N)c1 (stereo partly drawn)

>  <log10 Ki>
2.67

$$$$
>  <compound>
COc1ccc(S(=O)(=O)N(CC(C)C)C[C@@H](O)[C@H](Cc2ccc(OCc3ccccc3)cc2)NC(=O)O[C@H]2CO[C@H]3OCCC32)cc1 (stereo partly drawn)

>  <log10 Ki>
0.97

$$$$
>  <compound>
O=C(N[C@@H](Cc1ccccc1)[C@H](O)CN1CCCCCCCCOc2cccc(c2)S1(=O)=O)O[C@H]1CO[C@H]2OCCC21 (stereo partly drawn)

>  <log10 Ki>
0.36

$$$$
>  <compound>
COc1ccc(S(=O)(=O)N(C[C@@H](O)[C@H](Cc2ccccc2)NC(=O)O[C@H]2C[C@H]3CCO[C@H]3C2)C2CN(C)C2)cc1

>  <log10 Ki>
1.43

$$$$
>  <compound>
COc1ccc(S(=O)(=O)N(C[C@@H](O)[C@H](Cc2ccccc2)NC(=O)O[C@H]2CO[C@H]3OCCC32)C2CN(C(=O)OC(C)(C)C)C2)cc1 (stereo partly drawn)

>  <log10 Ki>
0.36

$$$$
>  <compound>
COc1ccc(S(=O)(=O)N(C[C@@H](O)[C@H](Cc2ccccc2)NC(=O)O[C@H]2CO[C@H]3OCCC32)C2CN(C)C2)cc1 (stereo partly drawn)

>  <log10 Ki>
0.23

$$$$
>  <compound>
CC(C)CN(C[C@@H](O)[C@H](Cc1ccccc1)NC(=O)OC1CC2CCO[C@@H]2C1)S(=O)(=O)c1ccc(CN)cc1 (stereo partly drawn)

>  <log10 Ki>
0.04

$$$$
>  <compound>
CC(C)CN(C[C@@H](O)[C@H](Cc1ccccc1)NC(=O)OC1CC2CCO[C@@H]2C1)S(=O)(=O)c1ccc(O)c(O)c1 (stereo partly drawn)

>  <log10 Ki>
0.08

$$$$
>  <compound>
CC(C)CN(C[C@@H](O)[C@H](Cc1ccccc1)NC(=O)OC1CC2CCO[C@@H]2C1)S(=O)(=O)c1ccc(C=NO)cc1 (stereo partly drawn)

>  <log10 Ki>
-0.28

$$$$
>  <compound>
Cc1ccc(S(=O)(=O)N(CCN(C)C)C[C@@H](O)[C@H](Cc2ccccc2)NC(=O)O[C@H]2C[C@H]3CCO[C@H]3C2)cc1CO

>  <log10 Ki>
1.80

$$$$
>  <compound>
CC(C)CN(C[C@@H](O)[C@H](Cc1ccccc1)NC(=O)O[C@H]1C[C@H]2CCO[C@H]2C1)S(=O)(=O)c1cncc(N)c1

>  <log10 Ki>
0.20

$$$$

---

pKi: −log10 of the molar value.
In what follows, each item is paired with its pKi for UniProt:P04585.

>  <molecule>
Cc1ccc(S(=O)(=O)N(CC(C)C)C[C@@H](O)[C@H](Cc2ccccc2)NC(=O)OC2CC3CCO[C@@H]3C2)cc1CO (stereo partly shown) [Compound 157]

>  <pKi>
9.06

$$$$
>  <molecule>
CC(C)CN(C[C@@H](O)[C@H](Cc1ccccc1)NC(=O)OC1CC2CCO[C@@H]2C1)C(=O)c1cc(O)cc(O)c1 (stereo partly shown) [Compound 134]

>  <pKi>
6.03

$$$$
>  <molecule>
CC(C)CN(C[C@@H](O)[C@H](Cc1ccccc1)NC(=O)O[C@H]1CO[C@H]2OCC[C@H]21)[C@@H]1C(=O)Nc2ccccc21 [Compound 250]

>  <pKi>
9.00

$$$$
>  <molecule>
CC(C)CN(C[C@@H](O)[C@H](Cc1ccccc1)NC(=O)OC1CO[C@H]2OCCC12)S(=O)(=O)c1cncc([N+](=O)[O-])c1 (stereo partly shown) [Compound 165]

>  <pKi>
9.00

$$$$
>  <molecule>
O=C(N[C@@H](Cc1ccccc1)[C@H](O)CN1CCCC/C=C/CCCC(O)c2cccc(c2)S1(=O)=O)OCc1cccnc1 (stereo partly shown) [Compound 239]

>  <pKi>
7.96

$$$$
>  <molecule>
O=C(N[C@@H](Cc1ccccc1)[C@H](O)CN1CCCCCCCOc2cccc(c2)S1(=O)=O)O[C@@H]1CC2CCO[C@@H]2C1 (stereo partly shown) [Compound 225h]

>  <pKi>
8.68

$$$$
>  <molecule>
Cc1ccc(S(=O)(=O)N(C[C@@H](O)[C@H](Cc2ccccc2)NC(=O)OC2CO[C@H]3OCCC23)C2CCOC2)cc1CO (stereo partly shown) [Compound 161]

>  <pKi>
8.80

$$$$
>  <molecule>
O=C(N[C@@H](Cc1ccccc1)[C@H](O)CN1CCC/C=C\CCCCOc2ccccc2COC1=O)O[C@@H]1CC2CCO[C@@H]2C1 (stereo partly shown) [Compound 227]

>  <pKi>
6.81

$$$$
>  <molecule>
COc1ccc(S(=O)(=O)N(CC(C)C)C[C@@H](O)[C@H](Cc2ccc(OCc3ccccc3)cc2)NC(=O)OC(C)(C)C)cc1 [Compound 207]

>  <pKi>
7.52

$$$$
>  <molecule>
CC(C)CN(C[C@@H](O)[C@H](Cc1ccccc1)NC(=O)OC1CC2CCO[C@@H]2C1)S(=O)(=O)c1cccc(O)c1 (stereo partly shown) [Compound 79]

>  <pKi>
8.77

$$$$
>  <molecule>
CC(C)CN(C[C@@H](O)[C@H](Cc1ccccc1)NC(=O)OC1CC2CCO[C@@H]2C1)S(=O)(=O)Cc1ccccc1 (stereo partly shown) [Compound 133]

>  <pKi>
7.82

$$$$
>  <molecule>
COc1ccc(S(=O)(=O)NN(CC(C)C)C[C@@H](O)[C@H](Cc2ccccc2)NC(=O)O[C@H]2CO[C@H]3OCCC32)cc1 (stereo partly shown) [Compound 185]

>  <pKi>
7.01

$$$$
>  <molecule>
CC(C)CN(C[C@@H](O)[C@H](Cc1ccccc1)NC(=O)OC(C)(C)C)S(=O)(=O)c1cncc([N+](=O)[O-])c1 [Compound 163]

>  <pKi>
7.44

$$$$
